# Assayed System: hGIP-R (Homo sapiens)
# Construct: expressed in transfected cells; host or cells: HEK-293 clonal cell lines
# Test Name: Functional hGIP-R Assay (cAMP formation, HTRF)
# Assay type: cell-based
# Test Parameters: cAMP efficacy; percent of maximal response to GIP(1-42)OH; 37° C., 0.1% bovine casein; arithmetic mean ± SEM
Result Type: Emax (%)

Query Smiles	Result Type	Unit Label	Value Reported
CC(C)(Cn1nc(C(F)(F)F)cc1C1CC1)NC(=O)[C@@H](Cc1cnc2ncccn12)NC(=O)[C@H]1C[C@@H]1c1ccc(NC(=O)C2CC(F)(F)C2)cc1	Emax	%	60.7
Cc1cn2cc(-c3ccc([C@H]4C[C@@H]4C(=O)N(C)[C@H](Cc4cnn(C)c4)C(=O)NC(C)(C)Cn4nc(C(F)(F)F)cc4-c4ccc(=O)n(C)c4)cc3)cnc2n1	Emax	%	114

(1) Cn1cc(C[C@@H](NC(=O)[C@H]2C[C@@H]2c2ccc(-c3cnc4nc(C(F)(F)F)cn4c3)cc2)C(=O)NC(C)(C)Cn2nc(C(F)(F)F)cc2-n2ccnn2)cn1
(2) [2H]C([2H])([2H])n1cc(-c2cc(C(F)(F)F)nn2CC(C)(C)NC(=O)[C@@H](Cc2cnn(C(F)F)c2)N2CC[C@@]3(C[C@@H]3c3ccc(-c4cnc5nn(C)cc5c4)cc3)C2=O)cc(F)c1=O
Of the two listed items, 1 and 2 , which carries the larger Emax figure? Please reply using the label of the selected record. 1

----------
# Assayed System: hGIP-R (Homo sapiens, UniProt P48546)
# Construct: expressed in transfected cells; host or cells: HEK-293 clonal cell lines
# Sequence (P48546 22-466): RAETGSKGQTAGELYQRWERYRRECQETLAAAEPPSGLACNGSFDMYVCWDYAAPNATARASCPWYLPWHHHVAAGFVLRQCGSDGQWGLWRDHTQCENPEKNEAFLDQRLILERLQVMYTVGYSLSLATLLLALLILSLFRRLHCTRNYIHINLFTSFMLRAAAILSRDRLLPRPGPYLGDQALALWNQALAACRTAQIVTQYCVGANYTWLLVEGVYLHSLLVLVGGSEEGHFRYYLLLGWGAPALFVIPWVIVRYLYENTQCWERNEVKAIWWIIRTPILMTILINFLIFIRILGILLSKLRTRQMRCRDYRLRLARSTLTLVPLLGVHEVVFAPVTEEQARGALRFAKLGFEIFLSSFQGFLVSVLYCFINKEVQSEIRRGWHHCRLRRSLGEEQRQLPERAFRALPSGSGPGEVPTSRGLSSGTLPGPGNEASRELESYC
# Test Name: Functional hGIP-R Assay (cAMP formation, HTRF)
# Format: cell-based
# Test Parameters: cAMP potency; HEK-293 cells expressing hGIP-R; incubated at 37° C. in the presence of 0.1% bovine casein; geometric mean; read-out: Human GIP-R EC50, nM (SEM, n)
Result Type: EC50 (nM)

Here's what some known entries look like.
Molecule	Value Reported
COCn1ncc(-c2cc(C(F)(F)F)nn2CC(C)(C)NC(=O)[C@@H](Cc2cnn(C)c2)NC(=O)[C@H]2C[C@@H]2c2ccc(-c3cnc4nn(C)cc4c3)cc2)n1	38.1
CCc1cn2cc(-c3ccc([C@H]4C[C@@H]4C(=O)N[C@H](Cc4cnc5ncccn45)C(=O)NC(C)(C)Cn4cc(C(F)(F)F)cn4)cc3)cnc2n1	36.4
Cn1cc2cc(-c3ccc([C@H]4C[C@@]45CCN([C@H](Cc4cnn(C(F)F)c4)C(=O)NC(C)(C)Cn4nc(C(F)(F)F)cc4-c4cc(F)c(=O)n(C)c4)C5=O)c(F)c3)cnc2n1 (single isomer, unassigned; isomer 1)	6.84
Cc1nc(-c2cnc3nc(C4CC4)cn3c2)ccc1[C@H]1C[C@@]12CCN([C@H](Cc1cnn(C(F)F)c1)C(=O)NC(C)(C)Cn1nc(C(F)(F)F)cc1-c1ccc(C(C)(C)O)nc1)C2=O	0.397

(A) Cn1cc(C[C@@H](NC(=O)[C@H]2C[C@@H]2c2ccc(-c3cnc4nn(C)cc4c3)cc2)C(=O)NC(C)(C)Cn2nc(C(F)(F)F)cc2-c2ncsn2)cn1
(B) COC(=O)c1cc(C(F)(F)F)nn1CC(C)(C)NC(=O)[C@@H](Cc1cnn(C)c1)NC(=O)[C@H]1C[C@@H]1c1ccc(-c2cnc3nc(C(F)(F)F)cn3c2)cc1
(C) CN(C(=O)[C@H]1C[C@@H]1c1ccc(-c2cnc3nn(C)cc3c2)cc1)[C@H](Cc1cnn(C)c1)C(=O)NC(C)(C)Cn1nc(C(F)(F)F)cc1-c1cccc(=O)[nH]1
(D) CC(C)(Cc1ccc(F)cc1)NC(=O)[C@@H](Cc1cnc2ncccn12)NC(=O)[C@H]1C[C@@H]1c1ccc(-c2cnc3nc(C(F)(F)F)cn3c2)cc1
(E) [2H]C([2H])([2H])n1cc(C[C@H](C(=O)NC(C)(C)Cn2nc(C(F)(F)F)cc2-c2cnc(C(C)(C)OP(=O)(O)O)nc2)N2CC[C@@]3(C[C@@H]3c3ccc(-c4cnc5nn(C)cc5c4)cc3Cl)C2=O)cn1
Order the records so the highest EC50 appears first and the lowest last. Answer format: the labels, ordered as requested. C, A, B, D, E

(I) Cc1nc(-c2ccc(C(C)(C)O)nc2)ccc1[C@H]1C[C@@]12CCN([C@H](Cc1cnn(C(F)F)c1)C(=O)NC(C)(C)Cn1nc(C(F)(F)F)cc1-c1ccn(C3CC3)c(=O)c1)C2=O
(II) Cn1cc(C[C@@H](NC(=O)[C@H]2C[C@@H]2c2ccc(-c3cnc4nn(C)cc4c3)cc2)C(=O)NC(C)(C)Cn2nc(C(F)(F)F)cc2-c2n[nH]cc2F)cn1
Of the two listed items, I and II , which carries the larger EC50 figure? Please reply using the label of the selected record. II
(II: 87.7 nM, I: 14.2 nM)

----------
# Assayed System: hGIP-R (Homo sapiens, UniProt P48546)
# Construct: expressed in transfected cells; host or cells: HEK-293 clonal cell lines
# Test Name: Functional hGIP-R Assay (cAMP formation, HTRF)
# Assay type: cell-based
# Test Parameters: cAMP efficacy; percent of maximal response to GIP(1-42)OH; 37° C., 0.1% bovine casein; arithmetic mean ± SEM
Result Type: Emax (%)

Here's what some known entries look like.
Compound	Unit Label	Value Reported
Cc1cn2cc(-c3ccc([C@H]4C[C@@]45CCN([C@H](Cc4cnn(C(F)F)c4)C(=O)NC(C)(C)Cn4nc(C(F)(F)F)cc4-c4ccc(=O)[nH]n4)C5=O)c(Cl)c3)cnc2n1 [Example 148]	%	74.4
[2H]C([2H])([2H])n1cc(C[C@H](C(=O)NC(C)(C)Cn2nc(C(F)(F)F)cc2-c2cnc(C)nc2)N2CC[C@@]3(C[C@@H]3c3ccc(-c4cnc5nc(C)cn5c4)cc3Cl)C2=O)cn1 [Example 152]	%	87.2
Cn1cc2cc(-c3ccc([C@H]4C[C@@H]4C(=O)N[C@H](Cc4cnc5ncccn45)C(=O)NC(C)(C)Cn4nc(C(F)(F)F)cc4C4CC4)cc3)cnc2n1 [Example 37]	%	77.4

(P) Cn1cc2cc(-c3ccc([C@H]4C[C@@H]4C(=O)N[C@H](Cc4cnc5ncccn45)C(=O)NC(C)(C)Cn4nc(C(F)(F)F)cc4-c4ccc(=O)n(C)c4)cc3)cnc2n1 [Example 62]
(Q) CN1CCC(n2cc(C(F)(F)F)nc2CC(C)(C)NC(=O)[C@@H](Cc2cnn(C(F)F)c2)N2CC[C@@]3(C[C@@H]3c3ccc(-c4cnc5nc(C6CC6)cn5c4)cc3Cl)C2=O)C1=O (single isomer, unassigned) [Example 146]
Of the two listed items, P and Q , which carries the larger Emax figure? Please reply using the label of the selected record. Q
(Q: 120%, P: 67.8%)

----------
# Assayed System: hGIP-R (Homo sapiens, UniProt P48546)
# Construct: expressed in transfected cells; host or cells: HEK-293 clonal cell lines
# Test Name: Functional hGIP-R Assay (cAMP formation, HTRF)
# Type: cell-based
# Test Parameters: cAMP potency; HEK-293 cells expressing hGIP-R; incubated at 37° C. in the presence of 0.1% bovine casein; geometric mean; read-out: Human GIP-R EC50, nM (SEM, n)
Result Type: EC50 (nM)

Here's what some known entries look like.
Compound	Unit Label	EC50
Cn1cc(C[C@@H](NC(=O)[C@H]2C[C@@H]2c2ccc(-c3cnc4nn(C)cc4c3)cc2)C(=O)NC(C)(C)Cn2nc(C(F)(F)F)cc2C2CC2)cn1	nM	63.4
Cc1cn2cc(-c3ccc([C@H]4C[C@@]45CCN([C@H](Cc4cnn(C(F)F)c4)C(=O)NC(C)(C)Cn4nc(C(F)(F)F)cc4-c4ccc(=O)[nH]n4)C5=O)c(Cl)c3)cnc2n1	nM	1.13
Cc1cn2cc(-c3ccc([C@H]4C[C@@]45CCN([C@H](Cc4cnn(C(F)F)c4)C(=O)NC(C)(C)Cn4nc(C(F)(F)F)cc4-c4ccn(C6CC6)c(=O)c4)C5=O)c(Cl)c3)cnc2n1	nM	0.44
[2H]C([2H])([2H])n1cc(C[C@H](C(=O)NC(C)(C)Cn2nc(C(F)(F)F)cc2-c2cnc(C(C)(C)O)nc2)N2CC[C@@]3(C[C@@H]3c3ccc(-c4cnc5nc(C6CC6)cn5c4)nc3C)C2=O)cn1	nM	1.75
Cn1cc(-c2cc(C(F)(F)F)nn2CC(C)(C)NC(=O)[C@@H](Cc2cnc3ncccn23)NC(=O)[C@H]2C[C@@H]2c2ccc(-c3cnc4nccn4c3)cc2)cn1	nM	7.93

(a) CN(C(=O)[C@H]1C[C@@H]1c1ccc(-c2cnc3nn(C(F)F)cc3c2)cc1)[C@H](Cc1cnn(C)c1)C(=O)NC(C)(C)Cn1nc(C(F)(F)F)cc1-c1ccc(=O)n(C)c1
(b) [2H]C([2H])([2H])n1cc(C[C@H](C(=O)NC(C)(C)Cn2nc(C(F)(F)F)cc2-c2cnc(C)nc2)N2CC[C@@]3(C[C@@H]3c3ccc(-c4cnc5nn(C)cc5c4)cc3Cl)C2=O)cn1 (single isomer, unassigned; isomer 1)
(c) CC(C)(Cn1nc(C(F)(F)F)cc1-c1ccn(C2CC2)c(=O)c1)NC(=O)[C@@H](Cc1cnn(C(F)F)c1)N1CCC2(CC2c2ccc(-c3cnc4nc(C5CC5)cn4c3)nc2C2CC2)C1=O (single isomer, unassigned)
Hi! Can you put these in order of EC50, lowest number first? Answer format: the labels, ordered as requested. c, b, a

(a) Cn1cc(-c2cc(C(F)(F)F)nn2CC(C)(C)NC(=O)[C@@H](Cc2cnn(C(F)F)c2)NC(=O)[C@H]2C[C@@H]2c2nc3c(Cl)nn(C)c3cc2C#N)cc(F)c1=O
(b) Cn1cc2cc(-c3ccc([C@H]4C[C@@H]4C(=O)N[C@H](Cc4cnc5ncccn45)C(=O)NC(C)(C)Cn4nc(C(F)(F)F)cc4-c4cn[nH]n4)cc3)cnc2n1
Select the item whose EC50 value is smaller, choosing between a and b . Please reply using the label of the selected record. b
(b: 34 nM, a: 118 nM)
